Assay: In-vivo study in healthy rats, drug plasma concentration after 4 sprays
Conditions: rat, topical, 12 mg strength, 4 Hr
Counter-ions that a name gives are not always drawn.
outcomeMeasure: concentration at 4 h (ng/mL)
Write down the numeric answer in ng/mL and omit the unit.

Q: Give the measured concentration at 4 h of CCCCN1CCCCC1C(=O)Nc1c(C)cccc1C (stereo not shown) [Bupivacaine HCl] .
Result: 270

----------
Assay: In-vivo study in healthy rats, drug plasma concentration after 4 sprays
Conditions: rat, topical, 8 mg strength, 1 Hr
Structures can show the parent of a compound that is named as a salt.
outcomeMeasure: concentration at 1 h (ng/mL)
Write down the numeric answer in ng/mL and omit the unit.

Q: Give the measured concentration at 1 h of CCCCN1CCCCC1C(=O)Nc1c(C)cccc1C (stereo not shown) [Bupivacaine HCl] .
Result: 148

----------
Assay: In-vivo study in healthy rats, drug plasma concentration after 4 sprays
Conditions: rat, topical, 12 mg strength, 24 Hr
Where a name gives a salt, the structure may show the parent alone.
outcomeMeasure: concentration at 24 h (ng/mL)
Write down the numeric answer in ng/mL and omit the unit.

Q: Give the measured concentration at 24 h of CCCCN1CCCCC1C(=O)Nc1c(C)cccc1C (stereo not shown) [Bupivacaine HCl] .
Result: 172

----------
Assay: In-vivo study in healthy rats, drug plasma concentration after 4 sprays
Settings: rat, topical, 12 mg strength, 0 Hr
Structures can show the parent of a compound that is named as a salt.
outcomeMeasure: concentration at 0 h (ng/mL)
Write down the numeric answer in ng/mL and omit the unit.

Q: Give the measured concentration at 0 h of CCCCN1CCCCC1C(=O)Nc1c(C)cccc1C (stereo not shown) [Bupivacaine HCl] .
Result: 0

----------
Assay: In-vivo study in healthy rats, drug plasma concentration after 4 sprays
Conditions: rat, topical, 8 mg strength, 4 Hr
Structures can show the parent of a compound that is named as a salt.
outcomeMeasure: concentration at 4 h (ng/mL)
Write down the numeric answer in ng/mL and omit the unit.

Q: Give the measured concentration at 4 h of CCCCN1CCCCC1C(=O)Nc1c(C)cccc1C (stereo not shown) [Bupivacaine HCl] .
Result: 221

----------
Experiment: In-vivo study in healthy rats, drug plasma concentration after 4 sprays
Settings: rat, topical, 12 mg strength, 8 Hr
Counter-ions that a name gives are not always drawn.
outcomeMeasure: concentration at 8 h (ng/mL)
Write down the numeric answer in ng/mL and omit the unit.

Q: Give the measured concentration at 8 h of CCCCN1CCCCC1C(=O)Nc1c(C)cccc1C (stereo not shown) [Bupivacaine HCl] .
Result: 329

----------
Experiment: In-vivo study in healthy rats, drug plasma concentration after 4 sprays
Conditions: rat, topical, 8 mg strength, 2 Hr
Counter-ions that a name gives are not always drawn.
outcomeMeasure: concentration at 2 h (ng/mL)
Write down the numeric answer in ng/mL and omit the unit.

Q: Give the measured concentration at 2 h of CCCCN1CCCCC1C(=O)Nc1c(C)cccc1C (stereo not shown) [Bupivacaine HCl] .
Result: 95

----------
Experiment: In-vivo study in healthy rats, drug plasma concentration after 4 sprays
Conditions: rat, topical, 12 mg strength, 0.25 Hr
Where a name gives a salt, the structure may show the parent alone.
outcomeMeasure: concentration at 0.25 h (ng/mL)
Write down the numeric answer in ng/mL and omit the unit.

Q: Give the measured concentration at 0.25 h of CCCCN1CCCCC1C(=O)Nc1c(C)cccc1C (stereo not shown) [Bupivacaine HCl] .
Result: 73
